Hello, the source for this data is patent US20130230533A1, in case you need it.

# tgt: T1, Monomeric monkey CD48-mmH (monkey)
# T1 construct: Soluble monkey CD48 with a myc-myc-hexa-histidine C-terminal tag; the whole entry is the construct; also called mfCD48-mmH
# T1 chain: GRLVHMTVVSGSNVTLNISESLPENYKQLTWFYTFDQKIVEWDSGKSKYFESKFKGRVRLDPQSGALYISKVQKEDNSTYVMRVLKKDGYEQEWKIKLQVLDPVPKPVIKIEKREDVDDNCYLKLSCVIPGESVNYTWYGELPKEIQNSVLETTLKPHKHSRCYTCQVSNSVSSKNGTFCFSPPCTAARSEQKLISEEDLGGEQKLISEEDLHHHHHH
# assay protocol: SPR (Biacore), antibody captured by anti-Fc, CD48 in solution, 25 C
readout label: koff (s⁻¹)
Number only, in s⁻¹; omit the unit.

Worked cases, answers included:
H4H1775P (antibody, human IgG4, V domains shown, Human IgG4 Fc (H4H)) VH: QVQLVESGGGVVQPGRSLRLSCAASGFTFSNYGMHWVRQAPGKGLEWVAVIWYDESGKHYADSVKGRFTISRDNSQNTLYLQMTSLRAEDTAVYYCARDRWTYSHYFEYWGQGTLVTVSS VL: DIQMTQSPSSVSASVGDRVTITCRASQDISSWVAWYQQKPGKAPKLLIYAASSLQSGVPSRFSGSGSGTDFTLTISSLQPEDFATYYCQQANSFPRTFGQGTKVEIK    4.07e-05
H4H1771P (antibody, human IgG4, V domains shown, Human IgG4 Fc (H4H)) VH: QVQLVQSGTEVKKPGASVKVSCKVSGYTLIDLSIHWVRQAPGEGLEWMGGFDPEESETIYAQKFQGRVTMTEDTSTDTAYMELSSLRSEDTAVYYCVTEPIFGILIHESWGQGTLVTVSS VL: DIVMTQTPLSSPVTLGQPASISCRSSHSPVHSNGHTYLSWLQQRPGQPPRILIYKISRRFSGVPDRFSGSGAGTDFTLKISRVETEDVGIYYCMQASQFPWTFGQGTKVEIK    0.000477

Now examine the next entry.
INPUT: For the binder shown here, H4H1778P (antibody, human IgG4, V domains shown, Human IgG4 Fc (H4H)) VH: QVQLVESGGGVVQPGRSLRLSCAASGFTFSNYGMHWVRQAPGKGLEWVAVIWYDESSKYYTDSVKGRFTISRDNSQNTLYLQMTSLRAEDTAVYYCARDRWTYSHYFEYWGQGTLVTVSS VL: DIQMTQSPSSVSASVGDRVTITCRASQGISSWVAWYQQKPGKAPKLLIYAASSLQSGVPSRFSGSGSGTDFTLTISSLQPEDFATYYCQQANSFPRTFGQGTKVEIK , give the reported koff.
OUTPUT: 8.98e-05
